Answer each item with its documented IC50.
Test system: forty-four human cancer cell lines
Experiment: Cell proliferation assay (ATPlite, 72 hours) in the 44 cell line Oncolines panel
Assay type: cell-based
Conditions: Homo sapiens, CCRF-CEM, read-out: cell panel IC50, CCRF-CEM
Number only, in µM; omit the unit.

CNC(=O)c1cc(Oc2ccc(NC(=O)Nc3ccc(Cl)c(C(F)(F)F)c3)cc2)ccn1 has a reported IC50 of 13

// IC50 value for Cc1ccc(Nc2nccc(N(C)c3ccc4c(C)n(C)nc4c3)n2)cc1S(N)(=O)=O : 10.9

The molecule Cc1nc(Nc2ncc(C(=O)Nc3c(C)cccc3Cl)s2)cc(N2CCN(CCO)CC2)n1 showed IC50 equal to 7.19

Looking up CS(=O)(=O)CCNCc1ccc(-c2ccc3ncnc(Nc4ccc(OCc5cccc(F)c5)c(Cl)c4)c3c2)o1 , I see its IC50 listed as 10.1

---

Test system: forty-four human cancer cell lines
Assay: Cell proliferation assay (ATPlite, 72 hours) in the 44 cell line Oncolines panel
Type: cell-based
Conditions: Homo sapiens, A 172, read-out: cell panel IC50, A-172
value_kind: IC50

GET /value?item= COc1cc2nccc(Oc3ccc(NC(=O)C4(C(=O)Nc5ccc(F)cc5)CC4)cc3)c2cc1OC [cabozantinib] &field=IC50 returns 14.6 µM

For reference, reported IC50 for CNC(=O)c1cc(Oc2ccc(NC(=O)Nc3ccc(Cl)c(C(F)(F)F)c3)cc2)ccn1 [sorafenib] stands at 22.6 µM

Record C#Cc1cccc(Nc2ncnc3cc(OCCOC)c(OCCOC)cc23)c1 [erlotinib] . Reported IC50: > 31.6 µM

// recorded IC50 for N#CC[C@H](C1CCCC1)n1cc(-c2ncnc3[nH]ccc23)cn1 [ruxolitinib] : 31.5 µM

Query CC(=O)Nc1cccc(-n2c(=O)n(C3CC3)c(=O)c3c(Nc4ccc(I)cc4F)n(C)c(=O)c(C)c32)c1 [trametinib] yields IC50 of 0.11 µM

---

System: panel of more than 300 wild-type and mutant kinases (313 kinase panel)
Test: Kinase profiling in a biochemical assay panel (mobility shift assays and ELISA), %-inhibition at 1 μM; selectivity entropy
Conditions: 1 µM
value_kind: %-inhibition of PKCβ2 (%)
# value in %; strip the unit string

Please fill in: %-inhibition of PKCβ2 reported for COc1cc(Nc2c(C#N)cnc3cc(OCCCN4CCN(C)CC4)c(OC)cc23)c(Cl)cc1Cl = 22

Given item C#Cc1cccc(Nc2ncnc3cc(OCCOC)c(OCCOC)cc23)c1 , the value recorded as its %-inhibition of PKCβ2 is 6

// Cc1ccc(Nc2nccc(N(C)c3ccc4c(C)n(C)nc4c3)n2)cc1S(N)(=O)=O : %-inhibition of PKCβ2 value = 4.55

The measured %-inhibition of PKCβ2 associated with COc1cc2c(Nc3ccc(Br)cc3F)ncnc2cc1OCC1CCN(C)CC1 reads -2.13

---

Target: panel of more than 300 wild-type and mutant kinases (313 kinase panel) (Homo sapiens, UniProt Q8TD19)
Sequence (Q8TD19 whole entry, change not shown): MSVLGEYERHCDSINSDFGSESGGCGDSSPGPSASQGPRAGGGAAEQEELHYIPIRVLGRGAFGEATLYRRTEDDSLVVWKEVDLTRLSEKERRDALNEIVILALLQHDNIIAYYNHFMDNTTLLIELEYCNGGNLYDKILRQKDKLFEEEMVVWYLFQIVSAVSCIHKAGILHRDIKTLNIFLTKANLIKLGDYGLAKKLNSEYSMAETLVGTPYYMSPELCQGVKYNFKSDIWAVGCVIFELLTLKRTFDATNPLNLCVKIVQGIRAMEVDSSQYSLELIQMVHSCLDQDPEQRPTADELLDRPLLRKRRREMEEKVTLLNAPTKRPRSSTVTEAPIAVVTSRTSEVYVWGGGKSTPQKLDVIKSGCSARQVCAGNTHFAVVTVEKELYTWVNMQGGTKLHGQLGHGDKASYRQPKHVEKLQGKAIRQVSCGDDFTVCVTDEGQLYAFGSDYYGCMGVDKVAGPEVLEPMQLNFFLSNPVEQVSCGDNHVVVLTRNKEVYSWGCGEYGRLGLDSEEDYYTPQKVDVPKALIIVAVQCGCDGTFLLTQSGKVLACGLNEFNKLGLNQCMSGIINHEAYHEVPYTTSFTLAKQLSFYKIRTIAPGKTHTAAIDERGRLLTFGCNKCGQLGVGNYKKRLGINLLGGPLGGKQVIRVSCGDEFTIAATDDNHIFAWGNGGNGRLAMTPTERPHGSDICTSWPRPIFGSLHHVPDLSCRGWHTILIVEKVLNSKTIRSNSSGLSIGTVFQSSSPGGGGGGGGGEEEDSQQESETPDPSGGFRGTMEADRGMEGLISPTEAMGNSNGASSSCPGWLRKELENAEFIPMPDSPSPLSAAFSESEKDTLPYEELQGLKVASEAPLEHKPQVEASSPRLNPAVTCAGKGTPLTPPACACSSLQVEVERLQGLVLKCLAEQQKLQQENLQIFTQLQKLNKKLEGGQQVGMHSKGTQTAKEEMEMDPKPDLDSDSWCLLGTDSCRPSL
Assay: Kinase profiling in a biochemical assay panel (mobility shift assays and ELISA), %-inhibition at 1 μM; selectivity entropy
Settings: kinase NEK9; 1 μM
Field: %-inhibition of NEK9. Provide a value for each of the compounds that follow.
Could you give me the number in %? Just the number is fine.

// field: %-inhibition of NEK9; key: COc1cc2nccc(Oc3ccc(NC(=O)C4(C(=O)Nc5ccc(F)cc5)CC4)cc3)c2cc1OC [cabozantinib] ; value = 1.26

Briefly, %-inhibition of NEK9 measured for CC(=O)Nc1cccc(-n2c(=O)n(C3CC3)c(=O)c3c(Nc4ccc(I)cc4F)n(C)c(=O)c(C)c32)c1 : -3

response.value for N#CC[C@H](C1CCCC1)n1cc(-c2ncnc3[nH]ccc23)cn1 (field: %-inhibition of NEK9) = 8

%-inhibition of NEK9 in this record for CCCS(=O)(=O)Nc1ccc(F)c(C(=O)c2c[nH]c3ncc(-c4ccc(Cl)cc4)cc23)c1F : -2.2

The recorded %-inhibition of NEK9 for O=S(=O)(c1cccc2cnccc12)N1CCCNCC1 is -3

Recorded result, Cc1ccc(Nc2nccc(N(C)c3ccc4c(C)n(C)nc4c3)n2)cc1S(N)(=O)=O , %-inhibition of NEK9: 3.59

Reported %-inhibition of NEK9 for Cc1ccc(C(=O)Nc2ccc(CN3CCN(C)CC3)c(C(F)(F)F)c2)cc1C#Cc1cnc2cccnn12 was 17
